Tested on: Human epidermal keratinocyte (HEK)
Assay: Cytotoxicity test (cell survival), MTT assay, HEK
Type: cell-based
Conditions: Homo sapiens, Keratinocyte, 0.1 mM, 24 hours, Table 2, read-out: Cell survival (% of control C, in brackets)
OBSERVABLE: activity at 100 µM (%)
Give the quantity in %, number only.

The following compounds have reported results that may help.
[in] Recorded activity at 100 µM of C=CCCOC(=O)CCC(=O)CN , please.
[out] 98.2

[in] Moving on to the next compound: C=CCCCCOC(=O)CCC(=O)CN
[out] 92.7

[in] Moving on to the next compound: C=CCCCOC(=O)CCC(=O)CN
[out] 82

---
[in] Recorded activity at 100 µM of NCC(=O)CCC(=O)O , please.
[out] 98.5

[in] Moving on to the next compound: COC(=O)CCC(=O)CN [ALA-1, 5-Aminolevulinic acid methyl ester, reference compound]
[out] 99.6

###

Tested on: Human epidermal keratinocyte (HEK)
Experiment: Cytotoxicity test (cell survival), MTT assay, HEK
Format: cell-based
Details: 0.5 mM, 24 hours, 570 nm
Threshold-based label: MTT absorbance (OD) under 3 OD gives condition met, MTT absorbance (OD) not under 3 OD gives condition not met.

# count of solved cases: 3
[in] Determine whether this molecule shows MTT absorbance (OD) lower than 3 OD (ties excluded): COC(=O)CCC(=O)CN [ALA-1, 5-Aminolevulinic acid methyl ester, reference compound]
[out] condition not met

[in] Moving on to the next molecule: C=CCCCCOC(=O)CCC(=O)CN [ALA-6, 5-Aminolevulinic acid 5-hexenyl ester]
[out] condition met

[in] Moving on to the next molecule: C=CCCOC(=O)CCC(=O)CN [ALA-3, 5-Aminolevulinic acid 3-butenyl ester]
[out] condition met

---
[in] Determine whether this molecule shows MTT absorbance (OD) lower than 3 OD (ties excluded): NCC(=O)CCC(=O)O [ALA, 5-Aminolevulinic acid]
[out] condition not met

[in] Moving on to the next molecule: C=CCCCOC(=O)CCC(=O)CN [ALA-4, 5-Aminolevulinic acid 4-pentenyl ester]
[out] condition met

###

System: Human dermal fibroblast (hF)
Assay: Cytotoxicity test (cell survival), MTT assay, hF
Format: cell-based
Conditions: 0.05 mM, 24 hours
Protocol: 3. Cytotoxicity Test (Cell Survival Test) Cytotoxicity was conducted through an MTT assay (Chemicon, Serologicals Corporation, USA) as follows. Cells were seeded at a density of 3×10^4 cells/well in 96-well plates (Nunc Do, Denmark). […] The plates were measured for absorbance at 570 nm using an ELISA reader (EMAX, Molecular Device, USA). […]
OBSERVABLE: Cell survival Avg (%) ± SD (%)
Give the quantity in %, number only.

The following molecules have reported results that may help.
[in] Recorded Cell survival Avg (%) ± SD (%) of C=CCCOC(=O)CCC(=O)CN , please.
[out] 126.76

[in] Moving on to the next molecule: C=CCCCCOC(=O)CCC(=O)CN
[out] 98.47

[in] Moving on to the next molecule: C=CCCCOC(=O)CCC(=O)CN
[out] 114.49

[in] Moving on to the next molecule: NCC(=O)CCC(=O)O
[out] 125.18

For the next question, use this molecule.
[in] Recorded Cell survival Avg (%) ± SD (%) of COC(=O)CCC(=O)CN [ALA-1, 5-Aminolevulinic acid methyl ester, reference compound] , please.
[out] 116.86

###

Tested on: Human epidermal keratinocyte (HEK)
Assay: Cytotoxicity test (cell survival), MTT assay, HEK
Format: cell-based
Settings: 0.01 mM, 24 hours, 570 nm
Label 1 when MTT absorbance (OD) is at or above 3 OD; anything below gets 0.

# count of solved cases: 2
[in] State whether the measured MTT absorbance (OD) reaches 3 OD, counting equality as reaching it, for C=CCCCOC(=O)CCC(=O)CN [ALA-4, 5-Aminolevulinic acid 4-pentenyl ester]
[out] 0

[in] Moving on to the next compound: C=CCCCCOC(=O)CCC(=O)CN [ALA-6, 5-Aminolevulinic acid 5-hexenyl ester]
[out] 1

With those in mind, consider the next compound.
[in] State whether the measured MTT absorbance (OD) reaches 3 OD, counting equality as reaching it, for NCC(=O)CCC(=O)O [ALA, 5-Aminolevulinic acid]
[out] 1

###

List of Cell survival Avg (%) ± SD (%) values.
Test system: Human dermal fibroblast (hF)
Experiment: Cytotoxicity test (cell survival), MTT assay, hF
Format: cell-based
Conditions: 0.5 mM, 24 hours
Give the quantity in %, number only.

The following compounds have reported results that may help.
[in] Recorded Cell survival Avg (%) ± SD (%) of NCC(=O)CCC(=O)O , please.
[out] 95.218

[in] Moving on to the next compound: C=CCCOC(=O)CCC(=O)CN
[out] 110.21

[in] Moving on to the next compound: C=CCCCCOC(=O)CCC(=O)CN
[out] 91.41

[in] Moving on to the next compound: COC(=O)CCC(=O)CN [ALA-1, 5-Aminolevulinic acid methyl ester, reference compound]
[out] 113

---
[in] Recorded Cell survival Avg (%) ± SD (%) of C=CCCCOC(=O)CCC(=O)CN , please.
[out] 95.81

###

Tested on: Human epidermal keratinocyte (HEK)
Experiment: Cytotoxicity test (cell survival), MTT assay, HEK
Type: cell-based
Details: 2 mM, 24 hours, 570 nm
OBSERVABLE: MTT absorbance (OD)
Give the quantity in OD, number only.

The following molecules have reported results that may help.
[in] Recorded MTT absorbance (OD) of C=CCCOC(=O)CCC(=O)CN , please.
[out] 2.185

[in] Moving on to the next molecule: C=CCCCOC(=O)CCC(=O)CN
[out] 2.407

[in] Moving on to the next molecule: COC(=O)CCC(=O)CN [ALA-1, 5-Aminolevulinic acid methyl ester, reference compound]
[out] 3.093

[in] Moving on to the next molecule: C=CCCCCOC(=O)CCC(=O)CN
[out] 2.306

---
[in] Recorded MTT absorbance (OD) of NCC(=O)CCC(=O)O , please.
[out] 2.179

###

Test system: Human epidermal keratinocyte (HEK)
Test: Cytotoxicity test (cell survival), MTT assay, HEK
Format: cell-based
Conditions: 2 mM, 24 hours, Table 3
List of Cell survival Avg (%) ± SD (%) values.
Quick note: number first, unit second.

[in] Recorded Cell survival Avg (%) ± SD (%) of COC(=O)CCC(=O)CN [ALA-1, 5-Aminolevulinic acid methyl ester, reference compound] , please.
[out] 83.69 ± 1.54%

[in] Moving on to the next compound: C=CCCOC(=O)CCC(=O)CN [ALA-3, 5-Aminolevulinic acid 3-butenyl ester]
[out] 83.69 ± 4.75%

[in] Moving on to the next compound: C=CCCCCOC(=O)CCC(=O)CN [ALA-6, 5-Aminolevulinic acid 5-hexenyl ester]
[out] 62 ± 1.59%

[in] Moving on to the next compound: NCC(=O)CCC(=O)O [ALA, 5-Aminolevulinic acid]
[out] 84.9 ± 5.12%

For the next question, use this compound.
[in] Recorded Cell survival Avg (%) ± SD (%) of C=CCCCOC(=O)CCC(=O)CN [ALA-4, 5-Aminolevulinic acid 4-pentenyl ester] , please.
[out] 44.82 ± 3.43%

###

System: Squamous cell carcinoma (A431)
Experiment: Cytotoxicity test (cell survival), MTT assay, A431
Assay type: cell-based
Settings: A431, 0.01 mM, 24 hours
OBSERVABLE: Cell survival Avg (%) ± SD (%)
Give the quantity in %, number only.

[in] GET /values?readout=Cell survival Avg (%) ± SD (%)&system=Squamous cell carcinoma (A431)&item= C=CCCOC(=O)CCC(=O)CN
[out] 104.08

For the next question, use this molecule.
[in] GET /values?readout=Cell survival Avg (%) ± SD (%)&system=Squamous cell carcinoma (A431)&item= NCC(=O)CCC(=O)O
[out] 102.99

###

Test system: Human epidermal keratinocyte (HEK)
Assay: Cytotoxicity test (cell survival), MTT assay, HEK
Format: cell-based
Details: 1 mM, 24 hours, 570 nm
OBSERVABLE: MTT absorbance (OD)
Give the quantity in OD, number only.

The following molecules have reported results that may help.
[in] GET /values?readout=MTT absorbance (OD)&system=Human epidermal keratinocyte (HEK)&item= COC(=O)CCC(=O)CN [ALA-1, 5-Aminolevulinic acid methyl ester, reference compound]
[out] 3.435

[in] Moving on to the next molecule: C=CCCCCOC(=O)CCC(=O)CN
[out] 2.548

[in] Moving on to the next molecule: NCC(=O)CCC(=O)O
[out] 2.802

[in] Moving on to the next molecule: C=CCCCOC(=O)CCC(=O)CN
[out] 2.475

For the next question, use this molecule.
[in] GET /values?readout=MTT absorbance (OD)&system=Human epidermal keratinocyte (HEK)&item= C=CCCOC(=O)CCC(=O)CN
[out] 2.592
